Parameter: pIC50. Scope: all listed entries.
Target chain: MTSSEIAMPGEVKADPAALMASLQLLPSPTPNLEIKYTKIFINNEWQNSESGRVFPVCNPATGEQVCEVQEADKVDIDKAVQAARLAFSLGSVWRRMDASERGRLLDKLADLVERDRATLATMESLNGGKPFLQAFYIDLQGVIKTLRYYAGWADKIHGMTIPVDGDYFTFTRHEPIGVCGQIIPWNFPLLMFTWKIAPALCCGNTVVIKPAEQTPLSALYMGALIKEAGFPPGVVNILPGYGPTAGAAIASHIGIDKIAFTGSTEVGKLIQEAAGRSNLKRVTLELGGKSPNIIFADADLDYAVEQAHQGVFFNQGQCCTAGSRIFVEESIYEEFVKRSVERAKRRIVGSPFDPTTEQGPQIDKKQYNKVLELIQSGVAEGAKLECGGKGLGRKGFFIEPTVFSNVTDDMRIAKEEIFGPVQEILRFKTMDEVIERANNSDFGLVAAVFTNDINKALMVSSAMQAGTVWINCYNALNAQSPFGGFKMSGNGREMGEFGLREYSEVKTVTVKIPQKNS
pIC50: −log10 of the molar value.

Below, each entry is followed by its recorded pIC50 result.
Cn1ccc2nc(Nc3ccc4c(c3)CC(C)(C)C(=O)N4)ccc21 [compound 113] = < 5.00
Cc1cc(C(=O)Nc2cc3c(cc2F)NC(=O)C(C)(C)C3)c(CC(C)C)cn1 [compound 37] = < 5.00
CCc1c(C(=O)Nc2ccc3c(c2)CCC(=O)N3)cc[nH]c1=O [compound 50] = < 5.00
Cc1ccc(C(=O)Nc2ccc3c(c2)CCC(=O)N3)cc1C [compound 11] = < 5.00
CC1(C)Cc2cc(Nc3ccc4c(c3)NC(=O)CC4)ccc2NC1=O [compound 114] = < 5.00
CC1(C)Cc2cc(Nc3ccc4ccncc4c3)ccc2NC1=O [compound 104] = < 5.00
CC1(C)Cc2cc(Nc3cc(Cl)c(Cl)cn3)ccc2NC1=O [compound 125] = 5.39
CCc1cnccc1C(=O)Nc1cc2c(cc1F)NC(=O)CC2(C)C [compound 40] = 5.48
Cc1ccccc1C(=O)Nc1ccc2c(c1)CCC(=O)N2 [compound 13] = 5.53
CCc1cnccc1C(=O)Nc1ccc2c(c1)CC(C)(CC)C(=O)N2 (stereo not drawn) [compound 62] = < 5.00

Input CC1(C)Cc2cc(NC3COc4ccccc4C3)ccc2NC1=O (stereo not drawn) [compound 105] , output reported pIC50.
< 5.00

Input COC(=O)c1ccc2ncc(Nc3ccc4c(c3)CC(C)(C)C(=O)N4)nc2c1 [compound 120] , output reported pIC50.
< 5.00

---

Target protein (sequence): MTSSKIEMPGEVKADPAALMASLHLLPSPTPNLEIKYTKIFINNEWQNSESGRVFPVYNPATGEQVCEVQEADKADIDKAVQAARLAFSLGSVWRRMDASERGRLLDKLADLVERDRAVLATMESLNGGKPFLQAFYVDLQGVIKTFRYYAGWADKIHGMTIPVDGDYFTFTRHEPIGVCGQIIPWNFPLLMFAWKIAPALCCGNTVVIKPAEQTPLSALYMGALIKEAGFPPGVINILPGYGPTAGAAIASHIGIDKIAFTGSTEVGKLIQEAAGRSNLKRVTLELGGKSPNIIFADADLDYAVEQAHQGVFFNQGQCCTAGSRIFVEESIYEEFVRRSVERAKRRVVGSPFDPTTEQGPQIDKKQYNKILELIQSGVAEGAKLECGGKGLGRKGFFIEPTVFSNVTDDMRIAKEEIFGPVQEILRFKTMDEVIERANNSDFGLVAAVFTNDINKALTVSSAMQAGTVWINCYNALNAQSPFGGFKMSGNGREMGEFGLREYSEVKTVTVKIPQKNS
pIC50: −log10 of the molar value.
READOUT KIND: pIC50

Below, each entry is followed by its recorded pIC50 result.
CCCc1cnccc1C(=O)Nc1ccc2c(c1)CCC(=O)N2 = 5.81
CC1(C)Cc2cc(Nc3ccc4c(c3)NC(=O)CC4)ccc2NC1=O = < 5.00
N#Cc1ccc2nc(Nc3ccc4c(c3)CCC(=O)N4)ccc2c1 = < 5.00
O=C1CCc2cc(Nc3nccc4ccccc34)ccc2N1 = 4.70
Cc1cnccc1C(=O)Nc1cc2c(cc1F)NC(=O)CC2 = 5.00
CC1(C)Cc2cc(NC3COc4ccccc4C3)ccc2NC1=O (stereo not shown) = < 5.00

Now for a further compound.
Input O=S1(=O)CCc2cc(Nc3ccc4ccccc4n3)ccc2N1 , output reported pIC50.
< 5.00

---

mALDH1a2 (Mus musculus, UniProt Q62148): recorded IC50 for assorted compounds

Below, each entry is followed by its recorded IC50 result.
O=S1(=O)CCc2cc(Nc3ccc4ccccc4n3)ccc2N1 [compound 102] = > 10 µM
CCc1c(C(=O)Nc2ccc3c(c2)CCC(=O)N3)ccnc1C [compound 55] = > 10 µM

Now for a further compound.
Input CC1(C)Cc2cc(Nc3c[nH]c4c(c3=O)CCCC4)ccc2NC1=O [compound 135] , output reported IC50.
> 10 µM

Origin of values: patent EP4803142A2
